This collection of values is drawn from the RNAGym collection of RNA variant scans (doi:10.1093/nar/gkz1192).

Examples of variants with documented self-cleavage follow.
B1: CPEB3 Ribozyme (parent)
chain: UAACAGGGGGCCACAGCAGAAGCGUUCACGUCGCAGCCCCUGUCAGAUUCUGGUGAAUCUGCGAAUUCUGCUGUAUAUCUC

# Variants of: B1
# Method summary: self-cleavage, relative activity (ratio to wild type); higher = more cleavage; in vitro, sequencing

Sequence change | self-cleavage
A18C U43G | 0.07
U43G A64U | 0.47
U51A U67A | 0.59
A2G U54A | 0.66
